# SYSTEM_NAME: P2X4 receptor (Homo sapiens, UniProt Q99571)
# Sequence (Q99571 1-388): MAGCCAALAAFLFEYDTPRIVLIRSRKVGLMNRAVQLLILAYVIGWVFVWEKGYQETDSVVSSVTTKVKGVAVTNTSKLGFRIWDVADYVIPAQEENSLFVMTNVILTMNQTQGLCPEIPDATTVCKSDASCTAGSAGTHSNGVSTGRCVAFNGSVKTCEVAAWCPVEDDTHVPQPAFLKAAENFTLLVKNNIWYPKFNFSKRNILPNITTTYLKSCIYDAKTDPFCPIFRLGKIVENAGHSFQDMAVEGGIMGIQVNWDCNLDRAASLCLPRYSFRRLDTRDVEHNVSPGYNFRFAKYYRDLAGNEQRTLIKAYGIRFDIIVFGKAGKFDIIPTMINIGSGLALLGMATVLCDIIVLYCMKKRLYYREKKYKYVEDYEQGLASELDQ
# ASSAY_NAME: Measurement of Ca2+ influx in transfected 1321N1 astrocytoma cells (P2X4 inhibitory potency)
# PROTOCOL_CONDITIONS: agonist-mediated Ca2+ influx, FLUO-4, 1321N1 astrocytoma cells; antagonists added 30 min before agonist
pIC50: −log10 of the molar value.
For each record, write down the corresponding pIC50.

>  <COMPOUND>
COc1ccc(-c2nc(C)ns2)cc1NCC(=O)N1CCc2c(OC)cccc21 [Example 4]

>  <SYSTEM_NAME>
P2X4 receptor (Homo sapiens, UniProt Q99571)

>  <pIC50>
7.41 to 7.70

$$$$
>  <COMPOUND>
CCn1nnc(-c2ccc(OC)c(NCC(=O)N3CCc4c(OC)cccc43)c2)n1 [Example 5]

>  <SYSTEM_NAME>
P2X4 receptor (Homo sapiens, UniProt Q99571)

>  <pIC50>
7.41 to 7.70

$$$$

Dear colleague, could you please provide pIC50 for the compounds listed below?
1. Cc1ccc(-c2nc(Br)ns2)cc1NCC(=O)N1CCc2c(OCC(C)(C)O)cccc21 [Example 14]
2. COc1ccc(-c2nc(C)ns2)cc1NCC(=O)c1c[nH]c2c(OC)cccc12 [Example 93]
3. Cc1noc(-c2ccc(C)c(NCC(=O)N3CCc4c(N5CCC(O)C5)cccc43)c2)n1 (stereo not drawn) [Example 25]
4. Cc1nsc(-c2ccc(C)c(NCC(=O)N3CCc4c3cccc4N(S(C)(=O)=O)S(C)(=O)=O)c2)n1 [Example 78]
5. CCc1noc(-c2ccc(OC)c(NCC(=O)c3c[nH]c4cc(OC)c(F)cc34)c2)n1 [Example 97]
6. Cc1nsc(-c2ccc(C)c(NCC(=O)N3CCc4c(N5CCC(O)C5)cccc43)c2)n1 (stereo not drawn) [Example 68]
7. Cc1nsc(-c2ccc(C)c(NCC(=O)N3CCc4ccccc43)c2)n1 [Example 52]
8. Cc1nsc(-c2cc(NCC(=O)N3CCc4c3cc(Br)cc4[C@@](C)(O)CO)c(C)cc2Br)n1 (stereo in doubt) [Example 123]

Marked response:
1. 7.72 to 10.00
2. 7.72 to 10.00
3. 7.72 to 10.00
4. 7.72 to 10.00
5. 7.72 to 10.00
6. 7.41 to 7.70
7. 7.16 to 7.40
8. < 7.00

Provide the reported pIC50 of each entry below, same order.
1. Cc1ccc(-c2ccc(C)c(NCC(=O)N3CCc4c(OCC(C)(C)O)cccc43)c2)nc1 [Example 117]
2. Cc1ccc(-c2nc(C3CC3)no2)cc1NCC(=O)N1CCc2c(OCC(C)(C)O)cccc21 [Example 50]
3. Cc1ccc(-c2ccc(C3CC3)cn2)cc1NCC(=O)N1CCc2c(OCC(C)(C)O)cccc21 [Example 114]
4. COc1ccc2c(C(=O)CNc3cc(-c4nc(C)ns4)ccc3C)c[nH]c2n1 [Example 95]

Marked response:
1. 7.16 to 7.40
2. 7.16 to 7.40
3. 7.16 to 7.40
4. 7.72 to 10.00

Exam item: Name the recorded pIC50 for Cc1ccc(-c2nc(C(F)F)ns2)cc1NCC(=O)N1CCc2c1cccc2C(C)(O)CO (stereo not drawn) [Example 61] .
Marked response: 7.72 to 10.00

These data points were gathered from patent US20260209215A1.
